Biological target: Dopamine D1 receptor (Bos taurus)
Sequence (Q95136 whole entry): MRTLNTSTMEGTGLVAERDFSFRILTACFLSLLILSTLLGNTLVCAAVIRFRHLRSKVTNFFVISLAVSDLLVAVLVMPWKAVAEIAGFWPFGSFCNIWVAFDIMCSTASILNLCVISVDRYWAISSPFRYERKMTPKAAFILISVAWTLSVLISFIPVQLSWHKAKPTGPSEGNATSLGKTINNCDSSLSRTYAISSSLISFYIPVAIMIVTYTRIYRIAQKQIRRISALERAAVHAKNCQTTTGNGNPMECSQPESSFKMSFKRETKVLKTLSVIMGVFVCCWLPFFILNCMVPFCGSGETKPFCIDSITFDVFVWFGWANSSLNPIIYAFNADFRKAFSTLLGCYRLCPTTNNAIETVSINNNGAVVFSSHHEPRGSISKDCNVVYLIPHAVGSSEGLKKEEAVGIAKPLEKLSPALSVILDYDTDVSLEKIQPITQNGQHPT
Experiment: biochemical
Format: binding, bovine
Settings: bovine caudate membranes, 3H-SCH23390, 37° C., 15 min; read-out: D1 K1
Measured Quantity: Ki (µM)

// below: answered molecules
CCCCOCCN(CCC)[C@H]1CCc2c(ccc(O)c2O)C1	5.89
CCCN(CC1CCCCO1)[C@H]1CCc2c(O)cccc2C1 (some centres unmarked)	7.08

(I) CCCN(CCOC1CCCC1)[C@H]1CCc2c(ccc(O)c2O)C1
(II) CCCN(CCC1CCCCO1)[C@H]1CCc2c(O)cccc2C1 (some centres unmarked)
Of the two listed items, which has the higher Ki? First: I Second: II Response format: the label of the selected entry.
II
(II: 7.41 µM, I: 5.01 µM)

Value source: patent US5382596A
